Every entry's value here was drawn from paper PMC2756588.

Would you kindly list SPOT intensity for each of these binders?
Target: T1, Bbc1, P47068
T1 sequence (P47068 1-78, looked up): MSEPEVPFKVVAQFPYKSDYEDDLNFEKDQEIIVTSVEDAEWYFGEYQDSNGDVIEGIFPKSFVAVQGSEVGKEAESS
Assay: SPOT array
Details: median of control spots 796
# answer = number (no unit)

May I ask what SPOT intensity has been recorded for RKNRAPPQRPRFNRE ? 362

Bench note: what SPOT intensity did RRRIAYPFYPFKKLG show? 133

Query (binder): AIPPPVPNRPGGTTN ; field requested: SPOT intensity 196
